- system: Serine/threonine-protein kinase pim-1 (Homo sapiens)
- Sequence (P11309 whole entry): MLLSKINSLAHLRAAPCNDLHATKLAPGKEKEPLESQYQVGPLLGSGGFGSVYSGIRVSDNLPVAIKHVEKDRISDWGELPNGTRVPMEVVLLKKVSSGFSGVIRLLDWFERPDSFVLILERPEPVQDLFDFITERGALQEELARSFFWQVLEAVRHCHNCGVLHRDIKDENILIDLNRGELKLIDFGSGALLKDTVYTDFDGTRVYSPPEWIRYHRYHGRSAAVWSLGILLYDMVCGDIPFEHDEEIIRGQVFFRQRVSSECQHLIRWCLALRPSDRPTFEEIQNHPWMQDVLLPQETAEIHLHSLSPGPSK
pIC50: −log10 of the molar value.

| smiles.input | system | pIC50 |
| --- | --- | --- |
| O=c1[nH]c(/C=C/c2cccc(F)c2)nc2ccccc12 | Serine/threonine-protein kinase pim-1 (Homo sapiens) | < 5.00 |

###

- Test system: SK-OV-3
- assay.name: Cytotoxicity against human SK-OV-3 cells assessed as inhibition of cell growth incubated for 72 hrs by MTT assay
- Assay type: functional, cell-based
- assay.conditions: SK-OV-3, 72 h
pIC50: −log10 of the molar value.

| smiles.input | pIC50 |
| --- | --- |
| O=c1[nH]c(/C=C/c2cccc(F)c2)nc2ccccc12 | 5.77 |

###

- assay.name: Cytotoxicity against human MCF-10A cells assessed as inhibition of cell growth incubated for 72 hrs by MTT assay
- Format: toxicity, cell-based

| smiles.input | lt.gt.eq | IC50 at 72 h / nM |
| --- | --- | --- |
| O=c1[nH]c(/C=C/c2cccc(F)c2)nc2ccccc12 | > | 10000 |
| COc1cc2c(c(OC)c1OC)-c1ccc(OC)c(=O)cc1[C@@H](NC(C)=O)CC2 | = | 6 |

###

- assay.name: Selectivity index, ratio of IC50 for cytotoxicity against human MCF-10A cells to IC50 for cytotoxicity against human MDA-MB-231 cells
- Format: toxicity, cell-based
- assay.conditions: MCF-10A cells versus MDA-MB-231 cells, read-out: Ratio IC50
experimental.endpoint: selectivity ratio

| smiles.input | experimental.endpoint | observed.measurement |
| --- | --- | --- |
| O=c1[nH]c(/C=C/c2cccc(F)c2)nc2ccccc12 | selectivity ratio | > 14 |

###

- system: Epidermal growth factor receptor (Homo sapiens, UniProt P00533)
- Sequence (P00533 whole entry): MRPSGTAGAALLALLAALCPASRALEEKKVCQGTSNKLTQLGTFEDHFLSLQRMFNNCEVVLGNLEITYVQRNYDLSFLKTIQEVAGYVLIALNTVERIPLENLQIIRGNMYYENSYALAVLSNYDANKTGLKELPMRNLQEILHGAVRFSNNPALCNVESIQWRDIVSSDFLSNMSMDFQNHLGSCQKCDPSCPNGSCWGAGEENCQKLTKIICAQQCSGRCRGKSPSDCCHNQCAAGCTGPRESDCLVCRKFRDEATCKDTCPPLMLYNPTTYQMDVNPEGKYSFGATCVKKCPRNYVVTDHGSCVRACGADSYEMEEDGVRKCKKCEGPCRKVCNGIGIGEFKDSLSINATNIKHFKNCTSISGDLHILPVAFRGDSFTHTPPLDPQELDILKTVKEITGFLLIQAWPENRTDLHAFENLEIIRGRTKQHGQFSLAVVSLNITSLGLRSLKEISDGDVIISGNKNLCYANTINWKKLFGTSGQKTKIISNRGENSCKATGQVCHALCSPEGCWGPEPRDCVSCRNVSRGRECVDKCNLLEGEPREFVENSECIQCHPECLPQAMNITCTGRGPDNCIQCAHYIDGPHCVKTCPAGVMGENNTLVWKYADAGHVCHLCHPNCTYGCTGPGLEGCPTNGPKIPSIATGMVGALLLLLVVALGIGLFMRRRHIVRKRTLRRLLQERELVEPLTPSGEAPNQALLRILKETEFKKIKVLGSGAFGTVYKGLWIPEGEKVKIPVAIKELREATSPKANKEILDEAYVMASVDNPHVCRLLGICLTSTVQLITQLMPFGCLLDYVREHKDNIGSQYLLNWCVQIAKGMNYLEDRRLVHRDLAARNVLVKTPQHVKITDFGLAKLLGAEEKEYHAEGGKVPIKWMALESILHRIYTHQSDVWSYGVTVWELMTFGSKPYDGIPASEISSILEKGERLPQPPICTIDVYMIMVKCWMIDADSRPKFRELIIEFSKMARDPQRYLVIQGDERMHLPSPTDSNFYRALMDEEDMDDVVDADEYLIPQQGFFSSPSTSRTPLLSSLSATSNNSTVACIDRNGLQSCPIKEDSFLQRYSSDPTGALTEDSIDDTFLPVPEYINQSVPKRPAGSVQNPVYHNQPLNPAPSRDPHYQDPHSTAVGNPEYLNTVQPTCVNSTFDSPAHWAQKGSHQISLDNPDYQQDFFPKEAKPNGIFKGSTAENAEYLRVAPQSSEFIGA
pIC50: −log10 of the molar value.

| smiles.input | pIC50 |
| --- | --- |
| O=c1[nH]c(/C=C/c2cccc(F)c2)nc2ccccc12 | < 5.00 |

###

- system: Poly [ADP-ribose] polymerase 1 (Homo sapiens)
- Sequence (P09874 whole entry): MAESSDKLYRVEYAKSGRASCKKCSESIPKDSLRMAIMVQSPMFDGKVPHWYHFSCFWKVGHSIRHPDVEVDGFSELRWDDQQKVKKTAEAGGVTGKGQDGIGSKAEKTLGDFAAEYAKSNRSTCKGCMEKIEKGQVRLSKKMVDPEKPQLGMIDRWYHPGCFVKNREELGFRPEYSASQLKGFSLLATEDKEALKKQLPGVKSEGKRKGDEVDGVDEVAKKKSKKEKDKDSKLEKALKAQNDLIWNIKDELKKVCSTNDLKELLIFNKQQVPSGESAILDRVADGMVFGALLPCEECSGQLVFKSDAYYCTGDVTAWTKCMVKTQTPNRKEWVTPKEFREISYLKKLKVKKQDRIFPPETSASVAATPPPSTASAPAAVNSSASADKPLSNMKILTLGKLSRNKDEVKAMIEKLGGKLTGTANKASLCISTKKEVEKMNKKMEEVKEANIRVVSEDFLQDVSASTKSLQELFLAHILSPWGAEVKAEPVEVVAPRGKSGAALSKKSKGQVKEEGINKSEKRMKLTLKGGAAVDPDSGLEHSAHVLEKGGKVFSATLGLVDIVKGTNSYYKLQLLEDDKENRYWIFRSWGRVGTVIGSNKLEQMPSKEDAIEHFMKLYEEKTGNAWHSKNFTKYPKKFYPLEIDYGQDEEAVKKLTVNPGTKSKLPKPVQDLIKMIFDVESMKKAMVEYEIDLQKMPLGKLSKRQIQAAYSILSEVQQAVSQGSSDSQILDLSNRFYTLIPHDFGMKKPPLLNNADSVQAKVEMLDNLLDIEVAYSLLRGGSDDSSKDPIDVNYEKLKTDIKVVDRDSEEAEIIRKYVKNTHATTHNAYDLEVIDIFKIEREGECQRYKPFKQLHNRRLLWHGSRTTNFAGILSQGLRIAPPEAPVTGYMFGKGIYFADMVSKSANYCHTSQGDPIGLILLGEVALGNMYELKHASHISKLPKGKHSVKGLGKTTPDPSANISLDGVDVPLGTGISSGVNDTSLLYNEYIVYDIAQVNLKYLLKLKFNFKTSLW
- assay.name: Inhibition of PARP1 (unknown origin) using [3H]NAD+ as substrate incubated for 15 mins by scintillation counting analysis
- assay.conditions: read-out: IC50

| smiles.input | system | IC50 |
| --- | --- | --- |
| O=c1[nH]c(/C=C/c2cccc(F)c2)nc2ccccc12 | Poly [ADP-ribose] polymerase 1 (Homo sapiens) | 480 nM |

###

Entries and their inhibition values follow.
- system: Tubulin (Homo sapiens) (UniProt P68371+Q9H4B7+P0DPH7+P68366+Q13509+Q71U36+P04350+Q3ZCM7+P07437+P68363+Q9BQE3+Q6PEY2+Q13885+Q9BVA1+Q9BUF5)
- assay.name: Inhibition of tubulin polymerization (unknown origin) at 10 uM by turbidimetric analysis
- Type: protein-complex assay

| smiles.input | inhibition |
| --- | --- |
| O=c1[nH]c(/C=C/c2cccc([N+](=O)[O-])c2)nc2ccccc12 | 65% |
| O=c1[nH]c(/C=C/c2cc(Br)ccc2O)nc2ccccc12 | 63% |
| Cc1cccc(-c2nc(O)c3ccccc3n2)c1 | 43% |
| COc1cc(/C=C/c2nc(O)c3ccccc3n2)ccc1O | 69% |

###

Quick list: inhibition per entry.
- system: Tubulin (Homo sapiens) (UniProt P68371+Q9H4B7+P0DPH7+P68366+Q13509+Q71U36+P04350+Q3ZCM7+P07437+P68363+Q9BQE3+Q6PEY2+Q13885+Q9BVA1+Q9BUF5)
- assay.name: Inhibition of tubulin polymerization (unknown origin) at 10 uM by turbidimetric analysis
- Type: protein-complex assay
experimental.endpoint: inhibition (%)

| smiles.input | observed.measurement |
| --- | --- |
| O=c1[nH]c(/C=C/c2cccc(F)c2)nc2ccccc12 | 91 |
| O=c1[nH]c(/C=C/c2ccccc2)nc2ccccc12 | 82 |
| COc1ccc(-c2nc(O)c3ccccc3n2)cc1 | 47 |
| Cc1ccc(-c2nc3ccccc3c(=O)[nH]2)cc1 | 45 |
| O=c1[nH]c(/C=C/c2ccc([N+](=O)[O-])cc2)nc2ccccc12 | 61 |
| COc1ccc(-c2nc3ccccc3c(=O)[nH]2)cc1C | 49 |

###

- system: CDK4/Cyclin D3 (Homo sapiens, UniProt P11802)
- Sequence (P11802 whole entry): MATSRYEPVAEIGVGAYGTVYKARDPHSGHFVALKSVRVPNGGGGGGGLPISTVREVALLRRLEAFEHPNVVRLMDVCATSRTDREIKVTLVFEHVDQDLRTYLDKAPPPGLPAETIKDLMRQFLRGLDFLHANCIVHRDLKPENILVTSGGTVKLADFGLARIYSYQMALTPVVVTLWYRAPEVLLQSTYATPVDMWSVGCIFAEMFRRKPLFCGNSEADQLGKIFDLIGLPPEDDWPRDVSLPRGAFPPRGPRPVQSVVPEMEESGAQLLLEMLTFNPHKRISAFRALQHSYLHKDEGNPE
- Sequence (P30281 whole entry, further chain): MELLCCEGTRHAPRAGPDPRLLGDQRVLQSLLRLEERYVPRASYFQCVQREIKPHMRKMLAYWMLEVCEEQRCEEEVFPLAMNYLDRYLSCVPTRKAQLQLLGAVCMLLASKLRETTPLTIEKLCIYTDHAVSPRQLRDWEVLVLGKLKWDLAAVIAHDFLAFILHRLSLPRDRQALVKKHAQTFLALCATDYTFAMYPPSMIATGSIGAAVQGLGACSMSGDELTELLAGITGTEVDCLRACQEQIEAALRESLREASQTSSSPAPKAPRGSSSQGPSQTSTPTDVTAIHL
- assay.name: Inhibition of CDK4/Cyclin D3 (unknown origin)
pIC50: −log10 of the molar value.

| smiles.input | pIC50 |
| --- | --- |
| O=c1[nH]c(/C=C/c2cccc(F)c2)nc2ccccc12 | < 5.00 |
